Just for reference, patent US20240309112A1 is where these values come from.

- Measured on: T1, biotin-labeled human PAD4 protein (human, UniProt Q9UM07 1-663, biotin on the Avi tag (biotin ligase BirA))
- T1 construct: also called Avi tag-human PAD4; biotin-labeled PAD4; not shown: Avi tag left on the N-terminal side after the GST tag was cleaved with PreScission Protease
- Assay: SPR, Biacore T200, biotin-labeled human PAD4 captured on chip, IgG as analyte
Quantity: kon (M⁻¹ s⁻¹)
State just the number; it will be interpreted in M⁻¹ s⁻¹.

Exercise: Need kon, item Lib2(4R)-1-47 (antibody, V domains shown, Tested as full-length antibody (human IgG1/human k) from Expi293; also called Lib(4R)-1-47) VH: EVQLLESGGGLVQPGGSLRLSCAASGFTFSTYAMGWVRQAPGKGLEFVAAIRNDGSWTGYGTPYKTRFTISRDNSKNTLYLQMNSLRAEDTAVYYCAKYTGSSGGSIGAWGQGTLVTVSS VL: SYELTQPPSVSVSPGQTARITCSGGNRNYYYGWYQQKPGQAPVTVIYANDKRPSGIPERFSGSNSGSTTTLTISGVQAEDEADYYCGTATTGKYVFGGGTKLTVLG
Solution: 9.39e+06
